# assay-overview: Pharmacokinetics of solid solution capsule in patients with ANCA associated vasculitis
# Assay type: in vivo, Humans
# condition-details: human, in vivo, po, 30 mg, AAV patients, 30 mg twice daily oral, 50:50 solid solution capsules; Compound 1 with or without Prednisone; read-out: Day 1 Cmax, Mean
measurement-name: Cmax

>>> observed_result("Cc1ccc(NC(=O)[C@H]2CCCN(C(=O)c3c(C)cccc3F)[C@H]2c2ccc(NC3CCCC3)cc2)cc1C(F)(F)F")
"188 ng/mL"

====

# assay-overview: Pharmacokinetics of solid solution capsule in patients with ANCA associated vasculitis
# Assay type: in vivo, Humans
# condition-details: human, in vivo, po, 30 mg, AAV patients, 30 mg twice daily oral, 50:50 solid solution capsules; Compound 1 + No Prednisone; read-out: Day 1 AUC0-6hr, Mean
measurement-name: AUC(0-t) (ng·h/mL)

>>> observed_result("Cc1ccc(NC(=O)[C@H]2CCCN(C(=O)c3c(C)cccc3F)[C@H]2c2ccc(NC3CCCC3)cc2)cc1C(F)(F)F")
526

====

# assay-overview: Food effect study (high fat, high calorie meal) in healthy volunteers
# Type: in vivo, human
# condition-details: human, plasma, po, 30 mg, healthy volunteers, 30 mg single oral dose, 50:50 solid solution capsule; Fasted; read-out: Tmax, untransformed LSM
# Procedure: An open-label study in 16 healthy volunteers to evaluate the pharmacokinetic effect of a high fat (˜50% of total caloric content of the meal), high calorie meal on the solid solution capsule of Compound 1 in a 50:50 mixture of macrogol-40-glycerol hydroxystearate:PEG-4000. Subjects received a single oral dose of 30 mg Compound 1, given in the fed or fasted state. Blood samples were collected for measurement of Compound 1 plasma concentrations.
measurement-name: Tmax

>>> observed_result("Cc1ccc(NC(=O)[C@H]2CCCN(C(=O)c3c(C)cccc3F)[C@H]2c2ccc(NC3CCCC3)cc2)cc1C(F)(F)F")
"2.29 h"

====

# assay-overview: pH solubility profile of Compound 1 in buffers, water, HCl and biorelevant media
# Assay type: physicochemical
# condition-details: aqueous buffer; pH 3 Buffer, actual pH 3.01
measurement-name: solubility (µg/mL)

>>> observed_result("Cc1ccc(NC(=O)[C@H]2CCCN(C(=O)c3c(C)cccc3F)[C@H]2c2ccc(NC3CCCC3)cc2)cc1C(F)(F)F [Compound 1]")
0.101

====

# assay-overview: pH solubility profile of Compound 1 in buffers, water, HCl and biorelevant media
# Assay type: physicochemical
# condition-details: aqueous buffer; pH 2 Buffer, actual pH 1.99
measurement-name: solubility (µg/mL)

>>> observed_result("Cc1ccc(NC(=O)[C@H]2CCCN(C(=O)c3c(C)cccc3F)[C@H]2c2ccc(NC3CCCC3)cc2)cc1C(F)(F)F")
0.863

====

# assay-overview: Pharmacokinetics of solid solution capsule in patients with ANCA associated vasculitis
# Type: in vivo, Humans
# condition-details: human, in vivo, po, 30 mg, AAV patients, 30 mg twice daily oral, 50:50 solid solution capsules; Compound 1 with or without Prednisone; read-out: Day 1 Tmax, Mean
measurement-name: Tmax (h)

>>> observed_result("Cc1ccc(NC(=O)[C@H]2CCCN(C(=O)c3c(C)cccc3F)[C@H]2c2ccc(NC3CCCC3)cc2)cc1C(F)(F)F")
2.62

====

# assay-overview: Pharmacokinetics of solid solution capsules in dogs
# condition-details: male, beagle, dog, in vivo, po, 20 mg, PO 20 mg/dog, capsule in 100% macrogol-40-glycerol hydroxystearate, Average of T1-T3
measurement-name: MRT (h)

>>> observed_result("Cc1ccc(NC(=O)[C@H]2CCCN(C(=O)c3c(C)cccc3F)[C@H]2c2ccc(NC3CCCC3)cc2)cc1C(F)(F)F")
4.8

====

# assay-overview: Pharmacokinetics of solid solution capsules in dogs
# condition-details: male, beagle, dog, in vivo, po, 20 mg, PO 20 mg/dog, capsule in 100% macrogol-40-glycerol hydroxystearate, trial T2
measurement-name: MRT

>>> observed_result("Cc1ccc(NC(=O)[C@H]2CCCN(C(=O)c3c(C)cccc3F)[C@H]2c2ccc(NC3CCCC3)cc2)cc1C(F)(F)F [Compound 1]")
"4.2 h"

====

# assay-overview: Pharmacokinetics of solid solution capsules in dogs
# condition-details: male, beagle, dog, in vivo, po, 20 mg, PO 20 mg/dog, capsule in 100% macrogol-40-glycerol hydroxystearate, trial T2
measurement-name: Cmax (ng/mL)

>>> observed_result("Cc1ccc(NC(=O)[C@H]2CCCN(C(=O)c3c(C)cccc3F)[C@H]2c2ccc(NC3CCCC3)cc2)cc1C(F)(F)F")
604

====

# assay-overview: Solubility of Compound 1 in alternative excipients/solvents (liquid formulations, cranberry juice dilution)
# Format: physicochemical
# condition-details: PEG400/EtOH/Transcutol P (50/40/10 v/v), organic solvent or mixture, thermodynamic from solid, PEG400/EtOH/Transcutol P (50/40/10 v/v); visually, against 30 mg/mL control solution; read-out: Solubility
measurement-name: solubility

>>> observed_result("Cc1ccc(NC(=O)[C@H]2CCCN(C(=O)c3c(C)cccc3F)[C@H]2c2ccc(NC3CCCC3)cc2)cc1C(F)(F)F")
"~30 mg/mL"

====

# assay-overview: Pharmacokinetics of solid solution capsules in dogs
# condition-details: male, beagle, dog, in vivo, po, 20 mg, PO 20 mg/dog, capsule in 50:50 macrogol-40-glycerol hydroxystearate:PEG-4000, trial T1
measurement-name: MRT (h)

>>> observed_result("Cc1ccc(NC(=O)[C@H]2CCCN(C(=O)c3c(C)cccc3F)[C@H]2c2ccc(NC3CCCC3)cc2)cc1C(F)(F)F")
4.8

====

# assay-overview: Pharmacokinetics of solid solution capsules in dogs
# condition-details: male, beagle, dog, in vivo, po, 20 mg, PO 20 mg/dog, capsule in 100% macrogol-40-glycerol hydroxystearate, trial T2
measurement-name: Tmax (h)

>>> observed_result("Cc1ccc(NC(=O)[C@H]2CCCN(C(=O)c3c(C)cccc3F)[C@H]2c2ccc(NC3CCCC3)cc2)cc1C(F)(F)F [Compound 1]")
4

====

# assay-overview: pH solubility profile of Compound 1 in buffers, water, HCl and biorelevant media
# Format: physicochemical
# condition-details: aqueous buffer; pH 9 Buffer, actual pH 9.00
measurement-name: solubility (µg/mL)

>>> observed_result("Cc1ccc(NC(=O)[C@H]2CCCN(C(=O)c3c(C)cccc3F)[C@H]2c2ccc(NC3CCCC3)cc2)cc1C(F)(F)F")
0.101

====

# assay-overview: Pharmacokinetics of solid solution capsules in dogs
# condition-details: male, beagle, dog, in vivo, po, 20 mg, PO 20 mg/dog, capsule in 100% macrogol-40-glycerol hydroxystearate, trial T2
measurement-name: AUC(0-inf) (ng·h/mL)

>>> observed_result("Cc1ccc(NC(=O)[C@H]2CCCN(C(=O)c3c(C)cccc3F)[C@H]2c2ccc(NC3CCCC3)cc2)cc1C(F)(F)F")
3020

====

# assay-overview: pH solubility profile of Compound 1 in buffers, water, HCl and biorelevant media
# Format: physicochemical
# condition-details: Fed-State Simulated Intestinal Fluid (FeSSIF); FeSSIF, pH 6.5, actual pH 6.47
measurement-name: solubility

>>> observed_result("Cc1ccc(NC(=O)[C@H]2CCCN(C(=O)c3c(C)cccc3F)[C@H]2c2ccc(NC3CCCC3)cc2)cc1C(F)(F)F [Compound 1]")
"1.96 µg/mL"

====

# assay-overview: pH solubility profile of Compound 1 in buffers, water, HCl and biorelevant media
# Type: physicochemical
# condition-details: aqueous buffer; pH 4 Buffer, actual pH 4.01
measurement-name: solubility

>>> observed_result("Cc1ccc(NC(=O)[C@H]2CCCN(C(=O)c3c(C)cccc3F)[C@H]2c2ccc(NC3CCCC3)cc2)cc1C(F)(F)F")
"0.013 µg/mL"

====

# assay-overview: Solubility of Compound 1 in alternative excipients/solvents (liquid formulations, cranberry juice dilution)
# Format: physicochemical
# condition-details: PEG400/EtOH/Transcutol P (50/40/10 v/v), organic solvent or mixture, PEG400/EtOH/Transcutol P (50/40/10 v/v), second listing; read-out: Solubility
# Method: Liquid formulations of PEG400/EtOH and Compound 1 can be prepared using general methods for making liquid formulations known in the art. For example, Compound 1 was dissolved in EtOH with agitation and ambient temperature, then the desired amount of PEG400 was added to achieve the desired ratios. The liquid formulations of the present example are prepared as described in Example 2. When additional excipients are included, they are added after dissolution of Compound 1 in ethanol.
measurement-name: solubility (mg/mL)

>>> observed_result("Cc1ccc(NC(=O)[C@H]2CCCN(C(=O)c3c(C)cccc3F)[C@H]2c2ccc(NC3CCCC3)cc2)cc1C(F)(F)F")
20.2

====

# assay-overview: Pharmacokinetics of solid solution capsules in dogs
# condition-details: male, beagle, dog, in vivo, po, 20 mg, PO 20 mg/dog, capsule in 50:50 macrogol-40-glycerol hydroxystearate:PEG-4000, trial T3
# Protocol: Solid Solution capsules of Compound 1 comprising 50:50 macrogol-40-glycerol hydroxystearate:PEG-4000 or 100% macrogol-40-glycerol hydroxystearate were prepared using the general procedures described in Example 4. The PEG heating steps were omitted for the 100% macrogol-40 glycerol hydroxystearate formulations. These formulations were dosed in beagle dogs (male) at 20 mg per dog to evaluate the pharmacokinetic profile. […]
measurement-name: Cmax

>>> observed_result("Cc1ccc(NC(=O)[C@H]2CCCN(C(=O)c3c(C)cccc3F)[C@H]2c2ccc(NC3CCCC3)cc2)cc1C(F)(F)F")
"481 ng/mL"
